Entries and their Ka, cMOA values follow.
Molecular target: Marasmius oreades lectin (MOA, cMOA) (Marasmius oreades, UniProt Q8X123)
Sequence (Q8X123 1-293): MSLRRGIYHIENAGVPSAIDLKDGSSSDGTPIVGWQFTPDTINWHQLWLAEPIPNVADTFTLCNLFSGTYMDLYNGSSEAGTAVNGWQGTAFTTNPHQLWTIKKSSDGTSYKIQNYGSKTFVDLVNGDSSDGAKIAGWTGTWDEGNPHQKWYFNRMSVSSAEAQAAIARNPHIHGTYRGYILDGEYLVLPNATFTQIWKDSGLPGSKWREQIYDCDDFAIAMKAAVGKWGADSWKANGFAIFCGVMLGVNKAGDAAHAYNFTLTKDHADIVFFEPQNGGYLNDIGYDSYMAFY
Assay: Isothermal titration calorimetry, MOA of Example 1 (proteolyzed, clipped form, cMOA)
Assay type: binding
Settings: proteolyzed (clipped) native lectin, Table 6

Some solved cases for reference:
[[record]]
compound = "C[C@@H]1O[C@@H](O[C@H]2C(O)O[C@H](CO)[C@H](O)[C@@H]2O[C@H]2O[C@H](CO)[C@H](O)[C@H](O)[C@H]2O)[C@@H](O)[C@H](O)[C@@H]1O (stereo partly shown) [B trisaccharide, Galα1,3[Fucα1,2]Gal]"
experimentalvalue = "27.8 10^3 M^−1"

[[record]]
compound = "CC(=O)N[C@H]1C(O)O[C@H](CO)[C@@H](O[C@@H]2O[C@H](CO)[C@H](O)[C@H](O[C@H]3O[C@H](CO)[C@H](O)[C@H](O)[C@H]3O)[C@H]2O)[C@@H]1O (stereo partly shown) [Linear B2 trisacc., Galα1,3Galβ1,4GlcNAc]"
experimentalvalue = "9.75 10^3 M^−1"

[[record]]
compound = "CC(=O)N[C@H]1C(O)O[C@H](CO)[C@@H](O[C@@H]2O[C@H](CO)[C@H](O)[C@H](O)[C@H]2O)[C@@H]1O (stereo partly shown) [LacNAc, N-acetyllactosamine]"
experimentalvalue = "0.29 10^3 M^−1"


Kindly consider the entry below.
Any idea what Ka, cMOA was measured for OC[C@H]1O[C@H](O[C@H]2[C@@H](O)[C@@H](CO)OC(O)[C@@H]2O)[C@H](O)[C@@H](O)[C@H]1O (stereo partly shown) [Galα1,3Gal] ?
5.48 10^3 M^−1
